System: 966289-007-R4-J1-PDC complex spheroid viability;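 also: spheroids exposed to agents for one week before readout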
procedure.text: Anticancer human tumor 966289-007-R4-J1-PDC patient-derived pancreatic adenocarcinoma cell line growth inhibition [RAS]
conditions.used: curve of first compound; second compound 0.003 µM
metric: IC50 (nM)
The reply should be a number in nM, with the unit left off.

input: In one line, give reported IC50 of the entry CC1(O)CCCC1n1c(=O)c(C(F)F)cc2cnc(NC3CCN(S(C)(=O)=O)CC3)nc21 (centres undefined) + CCn1c(-c2cccnc2C(C)OC)c2c3cc(ccc31)N1CCOC(CC(NC(=O)C(C(C)C)N(C)C(=O)C3(F)CCN(C(=O)C#CC(C)(C)N(C)C)CC3)C(=O)N3CCCC(N3)C(=O)OCC(C)(C)C2)C1 .
output: 155

input: In one line, give reported IC50 of the entry CC(C)NCC(C(=O)N1CCN(c2ncnc3c2C(C)CC3O)CC1)c1ccc(Cl)cc1 (centres undefined) + CCn1c(-c2cccnc2C(C)OC)c2c3cc(ccc31)N1CCOC(CC(NC(=O)C(C(C)C)N(C)C(=O)C3(F)CCN(C(=O)C#CC(C)(C)N(C)C)CC3)C(=O)N3CCCC(N3)C(=O)OCC(C)(C)C2)C1 .
output: 4850

input: In one line, give reported IC50 of the entry CC(C)n1nc(-c2ccc3oc(N)nc3c2)c2c(N)ncnc21 + CCn1c(-c2cc(N3CCN(C)CC3)cnc2C(C)OC)c2c3cc(ccc31)-c1csc(n1)CC(NC(=O)C1CC1C)C(=O)N1CCCC(N1)C(=O)OCC(C)(C)C2 .
output: 32.5
